meta.source: the Deep4Chem optical property database

- test.protocol: solvent given as SMILES
- run.conditions: in CC#N
# emission maximum values compiled below

compound | emission maximum / nm
C#CCn1c2ccccc2c2cc(/C=C/C3=[N+]4C(=C(c5ccc(I)cc5)c5c(C)cc(/C=C/c6ccc7c(c6)c6ccccc6n7CC#C)n5[B-]4(F)F)C(C)=C3)ccc21 | 688
Brc1ccc(-c2nc(-c3ccc(C#Cc4ccc(-n5c6ccccc6c6ccccc65)cc4)cc3)nc(-c3ccc(C#Cc4ccc(-n5c6ccccc6c6ccccc65)cc4)cc3)n2)cc1 | 563
COc1ccc(N(c2ccc(OC)cc2)c2ccc3c4cccc5c(N(c6ccc(OC)cc6)c6ccc(OC)cc6)ccc(c6cccc2c63)c54)cc1 | 598
CC(C)(C)c1ccc2c(c1)sc1[n+]2[B-](F)(F)n2c(c3cccc4c(Br)ccc2c43)=N1 | 519
COc1ccc(C#Cc2ccc3ccc(=O)oc3c2)cc1 | 465
c1ccc(-c2nc3cc4c(cc3n2-c2ccccc2)nc(-c2ccccc2)n4-c2ccccc2)cc1 | 397
CCN(CC)c1ccc(/C=C/C2=[O+][B-](F)(F)Oc3c2c(=O)oc2cc(N(CC)CC)ccc32)cc1 | 644
Cc1cc(-c2ccccc2C)cc(C)[o+]1 | 518
CN(C)c1ccc2nc(-c3ccccc3)sc2c1Cl | 466
CN(C)c1ccc(/C=C/c2nc3ccc(N(C)C)cc3oc2=O)cc1 | 650
Oc1ccccc1/C=N/c1cc2nc3ccccc3nc2cc1/N=C/c1ccccc1O | 501
CCCCCCCCOc1ccc(C2=C3C(C)=C(C#Cc4ccc(B(c5c(C)cc(C)cc5C)c5c(C)cc(C)cc5C)cc4)C(C)=[N+]3[B-](F)(F)n3c(C)c(C#Cc4ccc(B(c5c(C)cc(C)cc5C)c5c(C)cc(C)cc5C)cc4)c(C)c32)cc1 | 598
Cc1cc2nc3[nH]c(=O)[nH]c(=O)c3nc2cc1C | 437
CN(C)c1ccc2nc(-c3ccc(C(=O)Nc4ccccc4)cc3)sc2c1 | 553
Oc1ccc2ccccc2c1/C=N/c1ccccc1/N=C/c1c(O)ccc2ccccc12 | 496
CCN(CC)c1ccc(/C=N/Nc2ccc(C#N)cc2)c(O)c1 | 418
N#Cc1ccc(-c2ccc(C3=CCC(c4ccccc4)CC3)s2)s1 (stereo not drawn) | 448
COc1cccc(OC)c1C1=C2C(C)=CC(C)=[N+]2[B-](F)(F)n2c(C)cc(C)c21 | 513

---

- test.protocol: solvent given as SMILES
- run.conditions: in CCOC(C)=O
outcome.measure: emission maximum

smiles.text | outcome.measure | result
CNc1cccc2c1C(=O)c1ccccc1C2=O | emission maximum | 600 nm
CN(C)c1ccc(/C=C/c2nc3ccc(N(C)C)cc3oc2=O)cc1 | emission maximum | 587 nm
N#Cc1cc2ccc(O)cc2oc1=O | emission maximum | 406 nm
c1ccc(-c2nc(-c3ccccc3)nc(-c3ccc(-n4c5ccc(-c6ccc7sc8ccccc8c7c6)cc5c5cc(-c6ccc7sc8ccccc8c7c6)ccc54)cc3)n2)cc1 | emission maximum | 473 nm
Cc1ccc(C2=C3C=C(I)C=[N+]3[B-](F)(F)n3c2cc(I)c3I)cc1 | emission maximum | 578.5 nm
Nc1ncnc2c1c(C#Cc1ccc3ccccc3c1)cn2[C@H]1C[C@H](O)[C@@H](CO)O1 | emission maximum | 383 nm
CN(C)c1ccc2c3c(ccc2c1)C(=O)CCC3 | emission maximum | 429 nm
COc1ccc([C@@H]2C[C@](O)(c3ccccn3)C[C@](O)(c3ccccn3)[C@H]2C(=O)c2ccc(N(c3ccccc3)c3ccccc3)cc2)cc1 | emission maximum | 495 nm
CCN(CC)c1ccc(/C=C/C2=[O+][B-](F)(F)Oc3c2c(=O)oc2cc(N(CC)CC)ccc32)cc1 | emission maximum | 617 nm

---

# emission maximum values compiled below
- test.protocol: solvent given as SMILES
- run.conditions: in ClC(Cl)(Cl)Cl
outcome.measure: emission maximum (nm)

smiles.text | measured.number
CCCCCCCCCCCCCCCCOc1cc(C#Cc2ccc3ccccc3c2)c(OCCCCCCCCCCCCCCCC)cc1C#Cc1ccc(C=C(C#N)C#N)cc1 | 500
COc1ccc(C2=CC(c3ccc(OC)cc3)=[O+][B-](C(C)=O)(C(C)=O)O2)cc1 | 420
CN(C)c1ccc(/C=C/C=C2\CC/C(=C\c3ccc(N(C)C)cc3)C2=O)cc1 | 515
Nc1ccc(-c2ccc3c(c2)C(=O)c2ccccc2C3=O)cc1 | 562
CC1(C)Nc2cc(Cl)ccc2-c2[nH]c3ccccc3c(=O)c21 | 451
COc1ccc(/C=C/C2=[O+][B-](F)(F)OC(/C=C/c3ccc(OC)c4ccccc34)=C2c2ccccc2)c2ccccc12 | 577
COc1c2ccccc2c(-c2ccccc2)c2ccccc12 | 426

---

- test.protocol: solvent given as SMILES
- run.conditions: in CCCCCCCCCCO
# emission maximum values compiled below

smiles.text | emission maximum
c1ccc2sc(-c3ccc(-c4nnc(-c5ccc(-c6nnc(-c7ccc(-c8cc9ccccc9s8)s7)o6)cc5)o4)s3)cc2c1 | 389 nm
FC(F)(F)c1ccc(/C=C/c2ccc(-c3nnc(-c4ccc(-c5cc6ccccc6s5)cc4)o3)cc2)cc1 | 395 nm
COc1ccc(/C=C/c2ccc(-c3nnc(-c4ccc(-c5cc6ccccc6s5)cc4)o3)cc2)cc1 | 427 nm
CCC1=C(C)C2=C(C)c3c(C)c(CC)c(C)n3[B-](F)(F)[N+]2=C1C | 534.8 nm

---

# emission maximum values compiled below
- test.protocol: solvent given as SMILES
- run.conditions: in ClCCl

compound | emission maximum
C1=CC2C=c3c(cc4cccc5cc6ccccc6c3c45)C3=c4ccccc4=CC(=C1)C32 (configuration not stated) | 683 nm
COc1cc(/C=C/c2nc3ccccc3s2)c(OC)cc1/C=C/c1nc(C)nc(C)n1 | 496 nm
Cc1ccc2ccc3cccc4ccc1c2c34 | 378 nm
[O-][n+]1c(-c2ccc(Br)cc2)cc(N2CCOCC2)nc1/C=C/c1ccccc1 | 548 nm
C(#Cc1cccc(C#Cc2ccc(-n3c4ccccc4c4ccccc43)cc2)c1)c1ccc(-n2c3ccccc3c3ccccc32)cc1 | 394 nm
CC1=CC(C)=[N+]2C1=C(c1c3ccccc3c(C)c3ccccc13)c1c(C)cc(C)n1[B-]2(F)F | 519 nm
Nc1ccc(-c2ccc(N)cc2)cc1 | 384 nm
CN(C)c1ccc2nc(/C=C/c3cc4c5c(c3)CCCN5CCC4)c(=O)oc2c1 | 678 nm
CC(C)(C)c1cc2ccc3c(-c4ccc(N(c5ccccc5)c5ccccc5)cc4)ccc4c5nc6cc(C#N)c(C#N)cc6nc5c(c1)c2c34 | 839.18 nm
COc1ccc(N(c2ccc(OC)cc2)c2ccc3c4cccc5c(N(c6ccc(OC)cc6)c6ccc(OC)cc6)ccc(c6cccc2c63)c54)cc1 | 591 nm
CC(C)(C)c1ccc2c(c1)c1cc(C(C)(C)C)ccc1n2-c1cccs1 | 368 nm
CC1=[N+]2C(=C(c3c4ccccc4cc4ccccc34)c3ccc(C)n3[B-]2(F)F)C=C1 | 528 nm
c1ccc2c(c1)Cc1cc3c(cc1-2)Cc1ccccc1-3 | 356 nm
Cc1nnc(-c2cc(-n3c4ccccc4c4ccccc43)c(-n3c4ccccc4c4ccccc43)cc2-c2nnc(C)o2)o1 | 485.51 nm
Cc1cc(O)c(C(=O)/C=C/c2ccc(O)c(O)c2)c(=O)o1 | 493 nm
CCCCCCN1C(=O)c2cccc3c(-c4ccc(-c5cc(-c6ccc(C)cc6)n(-c6ccccc6)n5)s4)ccc(c23)C1=O | 521 nm
CSc1ccc(/C=C/c2ccncn2)cc1 | 435 nm
Cc1ccc([C@@H]2C[C@](O)(c3ccccn3)C[C@](O)(c3ccccn3)[C@H]2C(=O)c2ccc(N(c3ccccc3)c3ccccc3)cc2)cc1 | 516 nm
F[B-]1(F)n2c(-c3ccccc3)c3ccc4ccccc4c3c2N=C2c3c(ccc4ccccc34)C(c3ccccc3)=[N+]21 | 753 nm
CCN(CC)c1ccc2nc3c4ccccc4c(=O)cc-3oc2c1 | 608 nm
CN(C)c1nc(N)nc2c1nc(C#N)n2Cc1ccccc1 | 375 nm
COc1cc(C(=O)c2c(C)c3ccc4cccc5c6cccc7ccc2c(c76)c3c45)cc(OC)c1OC | 456 nm
O=P1(c2ccccc2)c2cccc3ccc4ccc1n4c23 (configuration not stated) | 496 nm
COc1ccc(-c2ccc(-c3cc(-c4ccccn4)nc(-c4ccccn4)c3)cc2)cc1 | 403 nm
COc1ccc(C#Cc2cc(C#Cc3ccc(OC)cc3)c(C#Cc3ccc(OC)cc3)c(C#Cc3ccc(OC)cc3)c2C#Cc2ccc(OC)cc2)cc1 | 437 nm
Cc1cc(-c2ccccc2C)cc(C)[o+]1 | 469 nm
COC(=O)c1cc(=O)n(C)c2cc(-c3ccccc3OC)sc12 | 469 nm
CC1=CC(C)=[N+]2C1=C(c1ccc(-c3c4ccccc4c(-c4ccccc4)c4ccccc34)cc1)c1c(C)cc(C)n1[B-]2(F)F | 512 nm
CN(C)c1ccc2nc(/C=C/c3ccccc3)c(=O)oc2c1 | 547 nm
CCCC(=O)c1c2c(c(C(=O)CCC)c3c1OC(CC(=O)OC)(C(=O)O)O3)OCO2 | 530 nm
Fc1ccc(-c2ccc(-c3cc(-c4ccccn4)nc(-c4ccccn4)c3)cc2)c(F)c1 | 358 nm
Cc1cc2cc(C)c3c4ccccc4[nH]c3c2o1 | 338 nm
Cc1ccc(C2=Nc3cccc4[n+]3[B-](F)(O2)OC(c2ccc(C)cc2)=N4)cc1 | 457 nm
CCCCn1c(-c2ccc(-c3nnc(-c4ccc(-c5nc(-c6ccccc6)c(-c6ccccc6)n5CCCC)cc4)o3)cc2)nc(-c2ccccc2)c1-c1ccccc1 | 445 nm
CC(C)[Si](C#Cc1ccc(C#C[Si](C(C)C)(C(C)C)C(C)C)c2nc3cc4c(cc3nc12)[C@H]1c2ccccc2[C@@H]4c2ccccc21)(C(C)C)C(C)C | 473 nm
F[B-]1(F)N2C=CN=CC2=[N+]2[N+]1=Cc1c(-c3ccccc3)cc(-c3cccs3)n1[B-]2(F)F | 566 nm
OCCSc1cccc2[n+]1[B-](F)(F)n1c(c3cccc4cccc1c43)=N2 | 501 nm
